Assay: basal RPMI8226 mitochondrial membrane potential changes, profiling panel, cell-based, JC-1 fluorescence, 24 h, 100 nL compound (AID 1169); also: test concentration not given here
Details: RPMI8226 myeloma, JC-1 mitochondrial potential fluorescence, higher = more signal
observable: z-score

chemical_smiles=O=C(CS)NCCCCCNC(=O)[C@H]1C[C@H]2C(=O)N3CCC[C@H]3C(=O)N2[C@H]1c1cccc(OCCO)c1 observable=z-score value_measured=-0.736
chemical_smiles=CCCCCCc1nc(CCCc2cc3c(c(CCCCCC)n2)[Si](C(C)C)(C(C)C)O[C@H]3c2ccccc2)cc2c1[Si](C(C)C)(C(C)C)O[C@H]2c1ccccc1 observable=z-score value_measured=-0.308
chemical_smiles=COC(=O)[C@@]1(Cc2ccc(F)cc2)[C@H]2c3cc(C(=O)N(C)C)n(Cc4ccc(OC)c(OC)c4)c3C[C@H]2CN1C(=O)c1ccccc1 observable=z-score value_measured=0.0709
chemical_smiles=COCCCNC(=O)[C@@]1(Sc2ccc(C)cc2)CC(=O)N(Cc2ccccc2)[C@@H]1c1ccc(CO)cc1I observable=z-score value_measured=-0.617
chemical_smiles=Cc1ccc(S(=O)(=O)N[C@@H]2COC(=O)[C@H](C)COC(=O)CC=C[C@H]2C)cc1 observable=z-score value_measured=1.06
chemical_smiles=CCOC(=O)NN=C1C[C@@H](O)[C@@H](O)[C@@H]2[C@@H]3C(=O)N(C4CCCCC4)C(=O)[C@@H]3CC[C@@H]12 observable=z-score value_measured=-0.0516
chemical_smiles=Cc1cc2c(c(=O)o1)[C@H](O)[C@H]1O[C@H]1C2=O observable=z-score value_measured=0.433

====

Assay: binders of probe aFGF2 on microarray, primary screen, stem cell growth factor project, biochemical, small-molecule microarray, fluorescence 635/667 (AID 1067);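 also: measures binding of biotinylated aFGF2 protein to printed compounds on slides; z-score merges feature fluorescence and signal-to-noise across triplicate slides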
Settings: higher = more signal
The following molecules are listed with their measured composite z-score values.
observable: composite z-score

molecule=C=C(/C(=C/C[C@@H](OC(=O)c1ccncc1)c1ccc(OCCO)cc1)c1cnc2ccccc2c1)C(C)C value_measured=-0.186
molecule=CCN1C(=O)[C@H]2[C@H]3[C@H](O)C=CC(=O)[C@@H]3CC[C@H]2C1=O value_measured=-0.0744
molecule=COC(=O)[C@H](C)NC(=O)[C@@H](C)CO value_measured=-0.116
molecule="C=CCC(OC(C)=O)[C@@H]1[C@@H](N(Cc2cc3ccccc3o2)C(=O)Cc2ccc(F)cc2)c2cc(OCCCO)ccc2N1C(=O)Cc1ccc(OC)cc1 (stereo not given in full)" value_measured=-0.0409
molecule="Cc1ccc(C2CC=C(C(=O)O)CN2S(=O)(=O)c2ccc(C)cc2)cc1 (stereo not given)" value_measured=-0.0258
molecule=COc1ccc(OC[C@H]2Cc3c(-c4ccccc4)nc4c(c3CO2)CN(CCOc2ccccc2)CC4)cc1 value_measured=-0.172
molecule=COc1ccc([Si](C)(C)[C@@H]2[C@@H](CCO)O[C@]3(C(=O)N(Cc4ccc(NC(C)=O)cc4)c4ccccc43)[C@H]2C)cc1 value_measured=-0.0049
molecule=C[C@@H](c1ccccc1)N1C(=O)[C@H]2[C@H]3[C@H](O)C=CC(=O)[C@@H]3CC[C@H]2C1=O value_measured=-0.218
molecule=CC(C)[C@H](NC(=O)OC(C)(C)C)[C@@H](O)CC(=O)OC(C)(C)C value_measured=-0.116
molecule=O=C1[C@H]2[C@H]3[C@H](O)[C@H](O)CC(=NO[C@@H]4O[C@H](CO)[C@@H](O)[C@H](O)[C@H]4O)[C@H]3CC[C@H]2C(=O)N1Cc1ccccc1 value_measured=-0.116
molecule=O=C1[C@H]2[C@H]3[C@H](O)[C@H](O)CC(=NOC[C@@H](O)COCc4ccco4)[C@@H]3CC[C@H]2C(=O)N1c1ccc(F)cc1F value_measured=-0.128
molecule=CCCC[C@H]1OB(O)C[C@H]2C1=C(C)C[C@H]1C(=O)N(C)C(=O)[C@H]12 value_measured=-0.0562
molecule=COC(=O)C1=C(C)[C@@H](O)[C@@H](C)[C@H](c2c(OC)c(OC)c(C)c(OC)c2OC)O1 value_measured=-0.131
molecule=CC(CCN1CCc2nc(-c3ccccc3)c(-c3ccccc3)cc2C1)=NO[C@H](C)c1cn([C@@H]2COC[C@H]2O)nn1 value_measured=-0.0867
molecule=C#CCCCON=C1C[C@@H](O)[C@@H](O)[C@@H]2[C@@H]3C(=O)N(CCC(=O)OCC)C(=O)[C@@H]3CC[C@@H]12 value_measured=-0.0505
